- Tested on: S. aureus ATCC 29213
- test protocol: Antibacterial susceptibility (MIC), NCCLS broth microdilution
- Type: cell-based
- condition info: CAMHB, 37° C., 18 h
- Protocol: Susceptibility of S. aureus strains to the known antibiotics and synthesized compounds was determined by following the guidelines set by NCCLS (M26-A). Compounds were diluted two-fold serially in DMSO and transferred to cation-adjusted Mueller Hinton broth (CAMHB; Becton Dickinson). 50 μL of compounds diluted in CAMHB was mixed with 100 μL of bacteria diluted in CAMHB in 96-well microtiter plates. […]
# if value of Minimum inhibitory concentration, S. aureus ATCC 29213 reaches 0.5 µg/mL, tag class 1; if it stays below, tag class 0

Example entries begin here.
compound: CCN(CC)CC.CO[C@H]1/C=C/O[C@@]2(C)Oc3c(C)c(O)c4c(c3C2=O)C2=NC3(CCN(CC(C)C)CC3)NC2=C(NC(=O)/C(C)=C\C=C\[C@H](C)[C@H](OC(=O)CN(C)C(=O)Nc2ccc(CC(P(=O)(O)O)P(=O)(O)O)cc2)[C@@H](C)[C@@H](O)[C@@H](C)[C@H](OC(C)=O)[C@@H]1C)C4=O [Compound 142b]
class label: class 0

compound: CO[C@H]1/C=C/O[C@@]2(C)Oc3c(C)c(O)c4c(c3C2=O)C2=NC3(CCN(CC(C)C)CC3)NC2=C(NC(=O)/C(C)=C\C=C\[C@H](C)[C@H](OC(=O)CNC(=O)CNC(=O)[C@@H](Cc2ccccc2)NC(=O)CNC(=O)CCC(P(=O)(O)O)P(=O)(O)O)[C@@H](C)[C@@H](O)[C@@H](C)[C@H](OC(C)=O)[C@@H]1C)C4=O.N.N [Compound 79b]
class label: class 1

compound: CO[C@H]1/C=C/O[C@@]2(C)Oc3c(C)c(O)c4c(c3C2=O)C2=NC3(CCN(CC(C)C)CC3)N(C(=O)OCc3cc(C)c(OC(=O)CCC(P(=O)(O)O)P(=O)(O)O)c(C)c3)C2=C(NC(=O)/C(C)=C\C=C\[C@H](C)[C@H](O)[C@@H](C)[C@@H](O)[C@@H](C)[C@H](OC(C)=O)[C@@H]1C)C4=O.N.N [Compound 19]
class label: class 0

compound: CCC(=O)OCOC(=O)N[C@@H](CCC(=O)Nc1ccc(CC(P(=O)(O)O)P(=O)(O)O)cc1)C(=O)N(C)CC(=O)O[C@@H]1[C@@H](C)[C@@H](O)[C@@H](C)[C@H](OC(C)=O)[C@H](C)[C@@H](OC)/C=C/O[C@@]2(C)Oc3c(C)c(O)c4c(c3C2=O)C2=NC3(CCN(CC(C)C)CC3)NC2=C(NC(=O)/C(C)=C\C=C\[C@@H]1C)C4=O.N.N [Compound 110]
class label: class 1

With those in mind, consider the next compound.
Kindly determine if Minimum inhibitory concentration, S. aureus ATCC 29213 recorded for CCC(=O)OCOC(=O)N(CCCC(P(=O)(O)O)P(=O)(O)O)CCOC(=O)N1C2=C3NC(=O)/C(C)=C\C=C\[C@H](C)[C@H](O)[C@@H](C)[C@@H](O)[C@@H](C)[C@H](OC(C)=O)[C@H](C)[C@@H](OC)/C=C/O[C@@]4(C)Oc5c(C)c(O)c(c(c5C4=O)C2=NC12CCN(CC(C)C)CC2)C3=O [Compound 164] is above or exactly 0.5 µg/mL.
class 1

----------
- System: S. aureus ATCC 29213
- test protocol: Antibacterial susceptibility (MIC), NCCLS broth microdilution
- Assay type: cell-based
- condition info: CAMHB, 37° C., 18 h
- Protocol: Susceptibility of S. aureus strains to the known antibiotics and synthesized compounds was determined by following the guidelines set by NCCLS (M26-A). Compounds were diluted two-fold serially in DMSO and transferred to cation-adjusted Mueller Hinton broth (CAMHB; Becton Dickinson). 50 μL of compounds diluted in CAMHB was mixed with 100 μL of bacteria diluted in CAMHB in 96-well microtiter plates. […]
experimental endpoint: Minimum inhibitory concentration, S. aureus ATCC 29213 (µg/mL)
The response must be a number in µg/mL with no trailing unit.

Solved cases below.
molecule: CO[C@H]1/C=C/O[C@@]2(C)Oc3c(C)c(O)c4c(c3C2=O)C2=NC3(CCN(CC(C)C)CC3)NC2=C(NC(=O)/C(C)=C\C=C\[C@H](C)[C@H](OC(=O)CN(CCCCC(P(=O)(O)O)P(=O)(O)O)CCOC(C)=O)[C@@H](C)[C@@H](O)[C@@H](C)[C@H](OC(C)=O)[C@@H]1C)C4=O [Compound 48b]
measured value: 0.5
//
molecule: CCN(CC)CC.CO[C@H]1/C=C/O[C@@]2(C)Oc3c(C)c(O)c4c(c3C2=O)C2=NC3(CCN(CC(C)C)CC3)NC2=C(NC(=O)/C(C)=C\C=C\[C@H](C)[C@H](OC(=O)CN(C)CC(=O)NC(P(=O)(O)O)P(=O)(O)O)[C@@H](C)[C@@H](O)[C@@H](C)[C@H](OC(C)=O)[C@@H]1C)C4=O [Compound 147]
measured value: 128

Could you now look at the following molecule, please?
Dear colleague, please send me the reported Minimum inhibitory concentration, S. aureus ATCC 29213 for CCC(=O)OCOC(=O)N[C@@H](CCCCNC(=O)CCC(P(=O)(O)O)P(=O)(O)O)C(=O)N(C)CC(=O)O[C@@H]1[C@@H](C)[C@@H](O)[C@@H](C)[C@H](OC(C)=O)[C@H](C)[C@@H](OC)/C=C/O[C@@]2(C)Oc3c(C)c(O)c4c(c3C2=O)C2=NC3(CCN(CC(C)C)CC3)NC2=C(NC(=O)/C(C)=C\C=C\[C@@H]1C)C4=O.N.N [Compound 95] when you can.
4

----------
- Type: in vitro ADME
- condition info: 50% Rat Serum, 24 h incubation, 37° C.
// assign TRUE if % Conversion (prodrug converted to parent drug after binding to bone) falls strictly below 0.1%, else FALSE (ties count as FALSE)

Example entries begin here.
compound: CO[C@H]1/C=C/O[C@@]2(C)Oc3c(C)c(O)c4c(c3C2=O)C2=NC3(CCN(CC(C)C)CC3)NC2=C(NC(=O)/C(C)=C\C=C\[C@H](C)[C@H](OC(=O)CN(C)CCOC(=O)CCC(P(=O)(O)O)P(=O)(O)O)[C@@H](C)[C@@H](O)[C@@H](C)[C@H](OC(C)=O)[C@@H]1C)C4=O
class label: TRUE
//
compound: CO[C@H]1/C=C/O[C@@]2(C)Oc3c(C)c(O)c4c(c3C2=O)C2=NC3(CCN(CC(C)C)CC3)N(C(=O)Oc3ccc(NC(=O)CCC(P(=O)(O)O)P(=O)(O)O)cc3)C2=C(NC(=O)/C(C)=C\C=C\[C@H](C)[C@H](O)[C@@H](C)[C@@H](O)[C@@H](C)[C@H](OC(C)=O)[C@@H]1C)C4=O
class label: TRUE
//
compound: CCN(CC)CC.CO[C@H]1/C=C/O[C@@]2(C)Oc3c(C)c(O)c4c(c3C2=O)C2=NC3(CCN(CC(C)C)CC3)NC2=C(NC(=O)/C(C)=C\C=C\[C@H](C)[C@H](OC(=O)CN(C)C(=O)Nc2ccc(CC(P(=O)(O)O)P(=O)(O)O)cc2)[C@@H](C)[C@@H](O)[C@@H](C)[C@H](OC(C)=O)[C@@H]1C)C4=O [Compound 142b]
class label: FALSE
//
compound: CCN(CC)CC.CCN(CC)CC.CO[C@H]1/C=C/O[C@@]2(C)Oc3c(C)c(O)c4c(c3C2=O)C2=NC3(CCN(CC(C)C)CC3)N(C(=O)OCc3ccc(OC(=O)CCCC(P(=O)(O)O)P(=O)(O)O)cc3)C2=C(NC(=O)/C(C)=C\C=C\[C@H](C)[C@H](O)[C@@H](C)[C@@H](O)[C@@H](C)[C@H](OC(C)=O)[C@@H]1C)C4=O
class label: FALSE
//
compound: CCC(=O)OCOC(=O)N[C@@H](Cc1ccc(OCCCC(P(=O)(O)O)P(=O)(O)O)cc1)C(=O)N(C)CC(=O)O[C@@H]1[C@@H](C)[C@@H](O)[C@@H](C)[C@H](OC(C)=O)[C@H](C)[C@@H](OC)/C=C/O[C@@]2(C)Oc3c(C)c(O)c4c(c3C2=O)C2=NC3(CCN(CC(C)C)CC3)NC2=C(NC(=O)/C(C)=C\C=C\[C@@H]1C)C4=O.N.N
class label: FALSE
//
compound: CCC(=O)OCOC(=O)N[C@@H](CCCCNC(=O)CCC(P(=O)(O)O)P(=O)(O)O)C(=O)N(C)CC(=O)O[C@@H]1[C@@H](C)[C@@H](O)[C@@H](C)[C@H](OC(C)=O)[C@H](C)[C@@H](OC)/C=C/O[C@@]2(C)Oc3c(C)c(O)c4c(c3C2=O)C2=NC3(CCN(CC(C)C)CC3)NC2=C(NC(=O)/C(C)=C\C=C\[C@@H]1C)C4=O.N.N
class label: FALSE

With those in mind, consider the next compound.
Take the compound CO[C@H]1/C=C/O[C@@]2(C)Oc3c(C)c(O)c4c(c3C2=O)C2=NC3(CCN(CC(C)C)CC3)N(C(=O)OCc3cc(C)c(OC(=O)CCC(P(=O)(O)O)P(=O)(O)O)c(C)c3)C2=C(NC(=O)/C(C)=C\C=C\[C@H](C)[C@H](O)[C@@H](C)[C@@H](O)[C@@H](C)[C@H](OC(C)=O)[C@@H]1C)C4=O.N.N and say whether its % Conversion (prodrug converted to parent drug after binding to bone) is less than 0.1%.
FALSE
